Please go through the items and note down their PLATELET COUNT.
# Organism: Rattus norvegicus
# test: DrugMatrix - Regimen: Daily Repeat
# Assay type: toxicity, organism-based, Sprague-Dawley
# Set-up: regimen Daily Repeat, gender Male, age 6-8 weeks
# run.conditions: in vivo, po, 0 mg/kg, 72 h, tissue Blood, route oral GAVAGE, dose level Control, time 3 day, vehicle 100 % WATER
Respond with a number, then the unit of measure.

1) CCN(CC)CC#CCOC(=O)C(O)(c1ccccc1)C1CCCCC1 (configuration not stated)	1189.83 x10E3/uL
2) O=P1(N(CCCl)CCCl)NCCCO1 (configuration not stated) [CYCLOPHOSPHAMIDE ANHYDROUS]	858 x10E3/uL
3) CC[C@H]1OC(=O)[C@H](C)[C@@H](O[C@H]2C[C@@](C)(OC)[C@@H](O)[C@H](C)O2)[C@H](C)[C@@H](O[C@@H]2O[C@H](C)C[C@H](N(C)C)[C@H]2O)[C@](C)(O)C[C@@H](C)CN(C)[C@H](C)[C@@H](O)[C@]1(C)O	1162.5 x10E3/uL
4) CCOC(N)=O	1142.83 x10E3/uL

Quick batch: PLATELET COUNT for everything below.
1. CNS(=O)(=O)Cc1ccc2[nH]cc(CCN(C)C)c2c1
2. CCN[C@@H](C)Cc1cccc(C(F)(F)F)c1
3. Cc1c(N(C)CS(=O)(=O)[O-])c(=O)n(-c2ccccc2)n1C.[Na+] [DIPYRONE SODIUM]

Result ::
1. 1181.33 x10E3/uL
2. 911.5 x10E3/uL
3. 1125.33 x10E3/uL

----------
# Species: Rattus norvegicus
# Type: toxicity, organism-based, Sprague-Dawley
# run.conditions: in vivo, po, 1200 mg/kg, 24 h, tissue Blood, route oral GAVAGE, dose level High, time 1 day, […]
# Description: DrugMatrix - Regimen: Single
parameter: ABSOLUTE BASOPHIL
Respond with a number, then the unit of measure.

Query :: Fill in: ABSOLUTE BASOPHIL of CC[C@H](C)C(=O)O[C@H]1C[C@H](O)C=C2C=C[C@H](C)[C@H](CC[C@@H](O)C[C@@H](O)CC(=O)O)[C@H]21 is ___
Result :: 12.5 cells/µL

----------
# Species: Rattus norvegicus
# test: DrugMatrix - Regimen: Daily Repeat
# Assay type: toxicity, organism-based, Sprague-Dawley
# Design: regimen Daily Repeat, gender Male, age 6-8 weeks
# run.conditions: in vivo, po, 100 mg/kg, 120 h, tissue Plasma, route oral GAVAGE, dose level Low, time 5 day, vehicle .5 % CMC
Please go through the items and note down their CHLORIDE.
Numbers only, in MEQ/L.

1. CC[C@]1(O)CC[C@H]2[C@@H]3CCC4=CCCC[C@@H]4[C@H]3CC[C@@]21C	99
2. CC=Cc1ccc(O)c(OC)c1	109.67
3. Nc1nc2c(c(=O)[nH]1)N(C=O)C(CNc1ccc(C(=O)N[C@@H](CCC(=O)O)C(=O)O)cc1)CN2 (some centres undefined)	102

Alright, here's another compound for you.
Query :: Fill in: CHLORIDE of C#C[C@]1(O)CC[C@H]2[C@@H]3CCC4=Cc5oncc5C[C@]4(C)[C@H]3CC[C@@]21C is ___
Result :: 99.67

----------
# Organism: Rattus norvegicus
# test: DrugMatrix - Regimen: Daily Repeat
# Type: toxicity, organism-based, Sprague-Dawley
# Design: regimen Daily Repeat, gender Male, age 6-8 weeks
# run.conditions: in vivo, po, 1500 mg/kg, 72 h, tissue Plasma, route oral GAVAGE, dose level High, time 3 day, vehicle .5 % CMC
parameter: ALANINE AMINOTRANSFERASE (u/L)
One number for each entry, in u/L.

1) O=c1cc(-c2ccccc2)oc2ccc3ccccc3c12 [BETA-NAPHTHOFLAVONE]	37
2) CC(C)(Sc1cc(C(C)(C)C)c(O)c(C(C)(C)C)c1)Sc1cc(C(C)(C)C)c(O)c(C(C)(C)C)c1 [PROBUCOL]	49.33
3) CCOC(=O)[C@H](CCc1ccccc1)N[C@@H](C)C(=O)N1CCC[C@H]1C(=O)O	41.33
4) C[C@@H](O)[C@H]1C(=O)N2C(C(=O)O)=C(S[C@@H]3CN[C@H](C(=O)N(C)C)C3)[C@H](C)[C@H]12 [MEROPENEM]	52.67

Query :: Fill in: ALANINE AMINOTRANSFERASE of Nc1nc2c(c(=O)[nH]1)N(C=O)C(CNc1ccc(C(=O)N[C@@H](CCC(=O)O)C(=O)O)cc1)CN2 (stereo not given in full) [LEUCOVORIN] is ___
Result :: 44.33
